measured_on: human D4.2 receptor (Homo sapiens, UniProt P21917, DEL265-296)
assay_info: Dopamine D4 receptor binding experiment ([3H]-spiperone)
measurement_setup: inhibition of [3H]-spiperone binding, human D4.2 receptor
quantity_name: IC50 (nM)

>>> print(df.to_string())
                                   compound  value_measured
0  CNc1nc(-c2ccc(F)cc2)c(CCN2CCC(C(=O)c3ccc(F)cc3)CC2)s1 [Compound K-36]            3.43

I = C=C(c1ccc(F)cc1)C1CCN(CCc2sc(C)nc2-c2ccc(F)cc2)CC1 [Compound K-32]
II = Cc1nc(-c2ccc(F)cc2)c(CCN2CCC(=Cc3ccc(Br)cc3)CC2)s1 [Compound L-25]
Problem: Would you let me know which has the greater IC50 value, I or II ? Indicate which entry you chose by stating its label.
Result: II

1 = Cc1nc(-c2ccc(F)cc2)c(CCN2CCC(=Cc3ccccc3)CC2)s1 [Compound L-30]
2 = CC(=C1CCN(CCc2sc(C)nc2-c2ccc(F)cc2)CC1)c1ccc(F)cc1 [Compound L-31]
Problem: Could you check which of 1 and 2 has a smaller value for IC50? Indicate which entry you chose by stating its label.
Result: 1
(1: 2.6 nM, 2: 16.7 nM)

A = Nc1nc(-c2ccc(F)cc2)c(CCN2CCC(=Cc3cccc(F)c3)CC2)s1 [Compound L-11]
B = Cc1nc(-c2ccc(Br)cc2)c(CCN2CCC(=Cc3ccc(F)cc3)CC2)s1 [Compound L-19]
Problem: Could you check which of A and B has a smaller value for IC50? Indicate which entry you chose by stating its label.
Result: A

---

measured_on: human D4.2 receptor (Homo sapiens, UniProt P21917, DEL265-296)
Sequence (P21917 with tags, fused parts or gaps DEL265-296): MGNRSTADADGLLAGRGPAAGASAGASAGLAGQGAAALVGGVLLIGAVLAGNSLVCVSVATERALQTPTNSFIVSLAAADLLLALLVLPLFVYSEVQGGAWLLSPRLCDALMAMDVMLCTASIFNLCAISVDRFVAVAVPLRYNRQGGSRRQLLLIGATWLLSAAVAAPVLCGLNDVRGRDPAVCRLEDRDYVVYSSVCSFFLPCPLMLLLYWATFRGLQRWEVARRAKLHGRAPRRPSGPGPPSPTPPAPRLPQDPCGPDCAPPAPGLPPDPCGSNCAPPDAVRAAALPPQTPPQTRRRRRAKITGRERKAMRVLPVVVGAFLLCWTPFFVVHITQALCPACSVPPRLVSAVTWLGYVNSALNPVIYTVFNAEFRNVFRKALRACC
assay_info: Dopamine D4 receptor binding experiment ([3H]-spiperone)
measurement_setup: CHO cell membranes expressing human D4.2 receptor, [3H]-spiperone (0.5 nM), 27°C, 2 hours
quantity_name: IC50 (nM)

As a guide, the following entries are already answered.
                                   compound  value_measured
0  Nc1nc(-c2ccc(F)cc2)c(C2CCN(CCCC(=O)c3ccc(F)cc3)C2)s1 (single isomer, unassigned; (+)) [Compound F-05]            6.58
1  Nc1nc(-c2ccc(F)cc2)c(C2CCN(CCCc3noc4cc(F)ccc34)C2)s1 (single isomer, unassigned) [Compound F-07]            11.8

A = Nc1nc(-c2ccc(F)cc2)c(C2CCN(CCCN3C(=O)CCc4ccccc43)C2)s1 (stereo not shown)
B = Cc1nc(-c2ccc(Cl)cc2)c(CCN2CCC(C(=O)c3ccc(F)cc3)CC2)s1
Problem: Would you let me know which has the greater IC50 value, A or B ? Indicate which entry you chose by stating its label.
Result: A

---

measured_on: human D4.2 receptor (Homo sapiens, UniProt P21917, DEL265-296)
assay_info: Dopamine D4 receptor binding experiment ([3H]-spiperone)
measurement_setup: CHO cell membranes expressing human D4.2 receptor, [3H]-spiperone (0.5 nM), 27°C, 2 hours
quantity_name: IC50 (nM)

As a guide, the following entries are already answered.
                                   compound                               measured_on  quantity_name  value_measured
0  Cc1nc(-c2ccc(F)cc2)c(CCN2CCC(C(=O)c3ccc(F)cc3)CC2)s1 [Compound K-19]  human D4.2 receptor (Homo sapiens, UniProt P21917, DEL265-296)           IC50             8.7
1  Nc1nc(-c2ccc(F)cc2)c(CCN2CCC(Cc3ccccc3)CC2)s1 [Compound K-04]  human D4.2 receptor (Homo sapiens, UniProt P21917, DEL265-296)           IC50            46.4
2  Nc1nc(-c2ccc(F)cc2)c(C2CCN(CCCC(c3ccc(F)cc3)c3ccc(F)cc3)C2)s1 (racemic) [Compound B-19]  human D4.2 receptor (Homo sapiens, UniProt P21917, DEL265-296)           IC50            55.9
3  COc1ccc(-c2nc(C)sc2CCN2CCC(C(=O)c3ccc(F)cc3)CC2)cc1 [Compound K-28]  human D4.2 receptor (Homo sapiens, UniProt P21917, DEL265-296)           IC50            1.63
4  Nc1nc(-c2ccc(F)cc2)c(CCN2CCC(C(=O)c3ccc(Cl)cc3)CC2)s1 [Compound K-08]  human D4.2 receptor (Homo sapiens, UniProt P21917, DEL265-296)           IC50            29.2
5  Nc1nc(-c2ccc(F)cc2)c(C2CCN(CCC=C(c3ccc(F)cc3)c3ccc(F)cc3)C2)s1 (racemic) [Compound C-03]  human D4.2 receptor (Homo sapiens, UniProt P21917, DEL265-296)           IC50            29.2

1 = Nc1nc(-c2cccc(F)c2)c(C2CCN(CCCC(=O)c3ccc(F)cc3)C2)s1 (racemic) [Compound D-09]
2 = Nc1nc(-c2ccccc2)c(CCN2CCC(C(=O)c3ccc(F)cc3)CC2)s1 [Compound K-10]
Problem: Would you let me know which has the greater IC50 value, 1 or 2 ? Indicate which entry you chose by stating its label.
Result: 1
(1: 32 nM, 2: 8.7 nM)

---

measured_on: human D4.2 receptor (Homo sapiens, UniProt P21917, DEL265-296)
Sequence (P21917 with tags, fused parts or gaps DEL265-296): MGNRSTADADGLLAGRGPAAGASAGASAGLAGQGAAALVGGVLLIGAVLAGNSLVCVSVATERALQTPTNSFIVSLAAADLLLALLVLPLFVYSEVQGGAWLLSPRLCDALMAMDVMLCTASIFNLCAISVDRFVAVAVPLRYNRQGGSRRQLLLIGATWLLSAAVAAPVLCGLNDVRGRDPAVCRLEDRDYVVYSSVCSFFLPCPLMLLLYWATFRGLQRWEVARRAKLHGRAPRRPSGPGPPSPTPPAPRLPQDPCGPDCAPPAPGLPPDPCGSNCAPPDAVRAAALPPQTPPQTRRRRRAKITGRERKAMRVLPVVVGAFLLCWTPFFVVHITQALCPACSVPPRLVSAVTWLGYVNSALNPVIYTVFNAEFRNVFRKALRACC
assay_info: Dopamine D4 receptor binding experiment ([3H]-spiperone)
measurement_setup: CHO cell membranes expressing human D4.2 receptor, [3H]-spiperone (0.5 nM), 27°C, 2 hours
quantity_name: IC50 (nM)

I = Cc1nc(-c2ccc(F)cc2)c(CCN2CCC(C(=O)c3ccccc3)CC2)s1
II = Nc1nc(-c2ccc(F)cc2)c(C2CCN(CCCC(=O)c3ccccc3)C2)s1 (racemic)
Problem: Could you check which of I and II has a smaller value for IC50? Indicate which entry you chose by stating its label.
Result: I

---

measured_on: human D4.2 receptor (Homo sapiens, UniProt P21917, DEL265-296)
Sequence (P21917 with tags, fused parts or gaps DEL265-296): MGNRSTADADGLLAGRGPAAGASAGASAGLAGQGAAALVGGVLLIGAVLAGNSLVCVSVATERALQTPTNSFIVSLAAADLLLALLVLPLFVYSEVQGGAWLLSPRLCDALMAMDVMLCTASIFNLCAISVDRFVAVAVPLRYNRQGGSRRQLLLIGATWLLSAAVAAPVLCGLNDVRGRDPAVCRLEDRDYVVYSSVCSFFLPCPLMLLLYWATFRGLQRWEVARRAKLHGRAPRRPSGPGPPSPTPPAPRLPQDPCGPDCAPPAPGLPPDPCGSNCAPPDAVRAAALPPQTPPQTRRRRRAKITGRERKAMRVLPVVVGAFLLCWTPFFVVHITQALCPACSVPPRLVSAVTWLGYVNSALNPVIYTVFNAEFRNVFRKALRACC
assay_info: Dopamine D4 receptor binding experiment ([3H]-spiperone)
measurement_setup: inhibition of [3H]-spiperone binding, human D4.2 receptor
Experimental: As a receptor preparation, Chinese hamster ovary (CHO) cell membranes where human D4.2 receptor was expressed were used. As [^3H]-labeled ligand, [^3H]-spiperone was used. […] After the reaction, the sample was filtered under suction through a glass filter (GF/B), and the radioactivity of the filter paper was determined in a liquid scintillation spectrometer. […]
quantity_name: IC50 (nM)

                                   compound  quantity_name  value_measured
0  Cc1nc(-c2ccc(F)cc2)c(CCN2CCC(=Cc3ccc(Cl)cc3)CC2)s1 [Compound L-24]           IC50            11.5

1 = CNc1nc(-c2ccc(F)cc2)c(CCN2CCC(=Cc3ccc(F)cc3)CC2)s1 [Compound L-35]
2 = Fc1ccc(C=C2CCN(CCc3scnc3-c3ccc(F)cc3)CC2)cc1 [Compound L-32]
3 = COc1ccc(-c2nc(N)sc2CCN2CCC(=Cc3ccc(F)cc3)CC2)cc1 [Compound L-05]
4 = COc1ccc(C=C2CCN(CCc3sc(N)nc3-c3ccc(F)cc3)CC2)cc1 [Compound L-10]
5 = COc1ccc(-c2nc(C)sc2CCN2CCC(C(=O)c3ccc(F)cc3)CC2)cc1Br [Compound K-31]
Problem: Sort low-to-high on IC50, please. Form entry: labels listed in requested order.
Result: 5, 1, 2, 3, 4
(5: 0.705 nM, 1: 2.15 nM, 2: 6.58 nM, 3: 18.3 nM, 4: 29.2 nM)
